Experiment: NCI Yeast Anticancer Drug Screen. Data for the rad50 strain (AID 155);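 also: 0% = growth of vehicle-only cultures of the same strain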
Conditions: S. cerevisiae rad50 strain growth inhibition; at 50.0 µM
Procedure: Growth inhibition of yeast strains with defined genetic alterations is measured as a screen for potential anti-cancer activity. Selected strains with alterations in DNA damage repair or cell cycle control were exposed to compounds and growth inhibition was measured relative to vehicle treated controls. The strain used in this assay is rad50
The panel holds about 79,000 compounds, 15% with a hit somewhere; the sample as a whole holds those more often. Calls of active or inactive are those of the source. Rule as the data show it: active = growth inhibition above about 70%; inactive = the rest.
Outcome codes: active, inactive

| MOLECULE | CLASS ASSIGNMENT |
| --- | --- |
| O=C(CCCN1CCN2Cc3[nH]c4ccccc4c3CC2C1)c1ccc(F)cc1 (centres undefined) | active |
| O=C(CCn1[nH]c(=O)c(Cl)c(Cl)c1=O)NNc1ccc([N+](=O)[O-])cc1[N+](=O)[O-] | inactive |
| CC(=O)OC(C#N)CC(C)(C)/[N+]([O-])=[N+](\[O-])C(C)(C)CC(C#N)OC(C)=O (centres undefined) | inactive |
| Cc1cc(C)[nH]c(=S)n1.[Pt] | inactive |
| Cc1ccc(S(=O)(=O)OC2C(C)OCOC(C)C2OS(=O)(=O)c2ccc(C)cc2)cc1 (centres undefined) | inactive |
| CCC(C)OC(=O)Nc1cccc(Cl)c1 (centres undefined) | active |
| Cc1c[nH]c(=O)n(CC(=O)C2CCC3C4CCC5=CC(=O)CCC5(C)C4CCC23C)c1=O (centres undefined) | inactive |
| NCC(CS)C(=O)NC(CS)C(=O)NC(CS)C(=O)NCCNc1ccc(NCCNC(=O)C(CS)NC(=O)C(CS)NC(=O)C(CN)CS)c2c1C(=O)c1c(O)ccc(O)c1C2=O (centres undefined) | inactive |
| Cc1cc2c(c3c1C(=O)CC3)C(C)(C)CC2(C)C | inactive |

====

assay: NCI Yeast Anticancer Drug Screen. Data for the rad50 strain (AID 155);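 also: 0% = growth of vehicle-only cultures of the same strain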; conditions: S. cerevisiae rad50 strain growth inhibition; at 5.0 µM (retest, dose inferred, filed as 0.5); stronger effect = higher value
This is part of a sample that, as a whole, favours compounds with a hit. Of some 79,000 tested, about 15% had one in any assay.
MEASURED QUANTITY: growth inhibition (%)

| MOLECULE | RECORDED VALUE |
| --- | --- |
| CC(=O)O[C@H]1[C@@H]2CC(C)(C)CC2=C(C=O)C2(C=O)CC12C (some centres not stated) | 40 |
| [Fe+2].c1cc[cH-]c1.c1ccc(-c2ccc[cH-]2)cc1 | -4 |
| CC(C)N(CCO)CC(O)Cn1cnc2c(N)ncnc21 (configuration not stated) (tested in a mixture with another compound) | -17 |
| CS(=O)(=O)OCCN(CCOS(C)(=O)=O)c1ccc(C=Nc2ccc3ccccc3c2)c(Cl)c1 | 5 |
| C[N+](C)(C)CCN(Cc1cccs1)c1ccccn1 | -2 |
| CC(C)(C)c1cc(C(=O)[O-])c([OH2+])c(C(C)(C)C)c1.CC(C)(C)c1cc(C(=O)[O-])c([OH2+])c(C(C)(C)C)c1.[Mn+2] | 22 |
| FC(F)(F)c1ccc(Nc2ccc(C(F)(F)F)cc2)cc1 | 9 |
| O=C1c2cccc3cccc(c23)C1(Br)Br | 36 |
| CC(=O)OC1CC2Cc3ccccc3C3(O)COC213 (configuration not stated) | -1 |
| CC(C)(C)c1c2c(c(C(C)(C)C)c3c1OCN(Cc1ccccc1)C3)OCN(Cc1ccccc1)C2 | 4 |
| CC(=O)OC1COC(n2ccc3cc(Br)c([N+](=O)[O-])cc32)C(OC(C)=O)C1OC(C)=O (configuration not stated) | -16 |
| O=c1[nH]c2ccccc2c(O)c1/C=N/C(=S)NCCc1ccccc1 | 26 |
| Clc1ccc(-c2nnn3ccccc23)cc1 | 4 |
| CCOC(=O)Cc1csc(/N=C\c2c(O)c3ccccc3oc2=O)n1 | 22 |
| O=S(=O)(Nc1ccc(Cl)cc1)c1ccccc1 | -3 |
| Cc1noc(NS(=O)(=O)c2ccc(NCc3c4ccccc4nc4cc(Cl)ccc34)cc2)c1C | 4 |
| CC(=O)NC1=C(Sc2ccc([N+](=O)[O-])cc2)C(=O)c2ccccc2C1=O | 96 |
| NC(=O)N/N=C/C(O)C(O)C(O)C(O)CO (configuration not stated) | 0 |
| O=C(O)/C=C/C(=O)c1ccccc1 | 7 |
| O=C1OC(CCl)CC12CC(CCl)OC2=O (configuration not stated) | 1 |
| CCOc1ccccc1C(=O)Nc1cc(C)nn1-c1ccccc1 | 5 |
| COC(=O)c1c(COC(=O)NC(C)C)c2n(c1C)CS(=O)(=O)C2 | -38 |
| CC(C)(C)C1=NN=C2c3ccccc3C(=O)C21 (configuration not stated) | 0 |
| N#CSC#CCCC#CSC#N | 52 |
| O=C1C(CCl)=CS(=O)(=O)c2ccccc21 | 10 |
| CC1C=CC(C)C2C(=O)C3C(C)C=CC(C)C3C(=O)C12 (configuration not stated) | 0 |
| O=S(=O)(Nc1nccs1)c1ccc(N=Cc2cn(Cc3ccccc3)c3ccccc23)cc1 | 3 |
| COc1cc(C(=O)C2OC2c2ccc(Cl)cc2)c([N+](=O)[O-])cc1OC (configuration not stated) | 25 |
| O=C(Nn1cc(F)c(=O)[nH]c1=O)C12CC3CC(CC(C3)C1)C2 | 41 |
| CN(C)c1ccc(C=Nc2ccc(OCCCCCCCCCCC(=O)O)cc2)cc1 | 100 |
| CCCN(CCC)C(=S)N/N=C/c1cccc(C)n1 | -8 |
| Clc1cccc(Cl)c1C(Nc1nncs1)Nc1nncs1 | 0 |
| Nc1ccc(O)c2ccccc12 | 19 |
| Nc1ncc(C(=O)c2ccccc2)cc1[N+](=O)[O-] | -142 |
| O=[N+]([O-])c1ccc(CCCCc2ccc([N+](=O)[O-])cc2)cc1 | -5 |
| CCC[n+]1ccc(/C=N\NC(N)=S)c2ccccc21 | 22 |
| Fc1ccc(NC(=S)SCc2ccc(Cl)c(Cl)c2)c(F)c1 | 13 |

Reference source for all entries: PubChem BioAssay (NCI)
